# SYSTEM: IKZF1 (Homo sapiens (Human), UniProt Q13422+Q96SW2)
# Sequence (Q13422 whole entry): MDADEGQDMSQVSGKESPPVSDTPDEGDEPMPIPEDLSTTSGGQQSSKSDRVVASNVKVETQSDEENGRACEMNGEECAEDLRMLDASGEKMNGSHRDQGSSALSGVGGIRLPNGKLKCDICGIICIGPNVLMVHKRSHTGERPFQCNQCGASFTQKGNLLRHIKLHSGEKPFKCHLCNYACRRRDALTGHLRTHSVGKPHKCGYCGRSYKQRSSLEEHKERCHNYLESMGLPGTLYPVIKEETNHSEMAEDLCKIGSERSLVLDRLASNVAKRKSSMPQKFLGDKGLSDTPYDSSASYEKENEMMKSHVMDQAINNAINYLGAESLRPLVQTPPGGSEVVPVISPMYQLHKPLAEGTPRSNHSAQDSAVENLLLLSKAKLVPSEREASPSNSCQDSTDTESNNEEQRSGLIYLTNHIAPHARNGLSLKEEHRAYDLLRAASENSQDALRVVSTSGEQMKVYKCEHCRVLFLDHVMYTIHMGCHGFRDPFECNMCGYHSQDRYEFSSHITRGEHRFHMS
# Sequence (Q96SW2 whole entry): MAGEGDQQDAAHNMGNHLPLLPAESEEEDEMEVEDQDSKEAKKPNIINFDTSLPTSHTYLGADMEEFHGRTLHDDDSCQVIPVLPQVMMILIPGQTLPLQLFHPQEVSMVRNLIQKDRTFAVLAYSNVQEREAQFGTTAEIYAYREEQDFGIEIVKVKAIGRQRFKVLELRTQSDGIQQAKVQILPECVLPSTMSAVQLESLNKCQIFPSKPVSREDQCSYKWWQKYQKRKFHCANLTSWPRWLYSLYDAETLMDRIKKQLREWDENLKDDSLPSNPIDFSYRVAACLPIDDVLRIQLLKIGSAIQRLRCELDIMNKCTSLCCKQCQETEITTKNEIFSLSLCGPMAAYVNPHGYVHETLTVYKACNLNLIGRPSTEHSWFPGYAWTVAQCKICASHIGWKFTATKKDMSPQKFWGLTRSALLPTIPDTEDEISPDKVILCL
# Sequence (Q16531 2-1140 partner): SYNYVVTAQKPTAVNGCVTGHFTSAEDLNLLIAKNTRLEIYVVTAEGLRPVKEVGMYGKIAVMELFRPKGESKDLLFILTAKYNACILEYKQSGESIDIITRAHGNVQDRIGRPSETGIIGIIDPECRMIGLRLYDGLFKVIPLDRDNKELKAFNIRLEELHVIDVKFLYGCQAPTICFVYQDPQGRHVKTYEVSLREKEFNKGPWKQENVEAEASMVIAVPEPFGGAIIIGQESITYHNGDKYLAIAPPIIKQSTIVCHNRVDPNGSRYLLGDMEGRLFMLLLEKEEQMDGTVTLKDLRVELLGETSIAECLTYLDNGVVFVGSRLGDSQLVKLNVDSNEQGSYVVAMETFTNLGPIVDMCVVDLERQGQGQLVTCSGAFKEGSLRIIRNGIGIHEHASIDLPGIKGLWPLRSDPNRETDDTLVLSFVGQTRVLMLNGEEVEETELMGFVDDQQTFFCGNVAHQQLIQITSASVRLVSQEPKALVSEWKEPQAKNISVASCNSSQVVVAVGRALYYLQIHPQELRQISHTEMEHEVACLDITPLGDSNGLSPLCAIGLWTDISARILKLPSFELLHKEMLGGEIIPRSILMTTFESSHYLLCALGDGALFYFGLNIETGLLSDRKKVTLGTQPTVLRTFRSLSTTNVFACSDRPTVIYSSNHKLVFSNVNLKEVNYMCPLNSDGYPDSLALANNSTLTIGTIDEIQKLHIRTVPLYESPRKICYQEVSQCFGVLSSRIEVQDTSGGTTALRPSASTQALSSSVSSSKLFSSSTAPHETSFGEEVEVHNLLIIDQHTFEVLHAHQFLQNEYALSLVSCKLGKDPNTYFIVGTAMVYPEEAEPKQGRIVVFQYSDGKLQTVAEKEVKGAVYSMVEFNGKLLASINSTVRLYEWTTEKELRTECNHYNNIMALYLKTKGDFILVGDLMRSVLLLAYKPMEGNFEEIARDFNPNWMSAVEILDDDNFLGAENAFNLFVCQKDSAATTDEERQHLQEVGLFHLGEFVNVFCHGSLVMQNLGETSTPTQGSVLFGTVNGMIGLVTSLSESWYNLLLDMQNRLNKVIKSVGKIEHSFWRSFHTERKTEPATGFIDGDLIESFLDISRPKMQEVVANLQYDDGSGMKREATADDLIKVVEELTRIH
# PROTOCOL SUMMARY: In vitro IKZF1 HiBit Assay (HEK293T Flp-in-HiBiT-IKZF1 stable cell line)
# Format: cell-based
# CONDITION SET: HEK293T Flp-in-HiBiT-IKZF1 stable cell line, 6 hrs incubation; read-out: IKZF1 HiBit DC50
PROPERTY NAME: DC50

[[record]]
compound = "O=C1CCC(N2Cc3cc(-c4cc(CN5CCC(F)CC5)c5ccn(C6COC6)c5n4)ccc3C2=O)C(=O)N1 (centres unmarked) [Example 187]"
system = "IKZF1 (Homo sapiens (Human), UniProt Q13422+Q96SW2)"
result = "> 10 µM"


DC50 for O=C1CCC(N2Cc3cc(-c4cc(CN5CC(O)C5)c5cc[nH]c5n4)ccc3C2=O)C(=O)N1 (centres unmarked) [Example 111] ?
> 10 µM

Which DC50 value is on record for O=C1CCC(N2Cc3cc(-c4cc(CN5CCCC5C(F)(F)F)c5ccn(C6COC6)c5n4)ccc3C2=O)C(=O)N1 (centres unmarked) [Example 253] ?
> 10 µM

I'd like to know its DC50. The compound in question is O=C1CCC(N2Cc3cc(-c4cc(CN5CCC(CO)C5)c5ccn(C6COC6)c5n4)ccc3C2=O)C(=O)N1 (centres unmarked) [Example 164]
0.1 to 1 µM

Would you mind telling me what DC50 value was observed for COCCOc1ccnc2c(CN3CCCC3)cc(-c3ccc4c(c3)CN(C3CCC(=O)NC3=O)C4=O)nc12 (centres unmarked) [Example 278] ?
> 10 µM

What value of DC50 has been recorded for this entry: O=C1CCC(N2Cc3cc(-c4cc(CN5CCCC5)c5ccn(CCOCc6ccccc6)c5n4)ccc3C2=O)C(=O)N1 (centres unmarked) [Example 130]
> 10 µM

Look up DC50: O=C1CCC(N2Cc3cc(-c4cc(CN5CCCC5)c5ccn(CCO)c5n4)ccc3C2=O)C(=O)N1 (centres unmarked) [Example 131]
> 10 µM

// returns reported DC50 for input CCn1ccc2c(CN3CCCC3)cc(-c3ccc4c(c3)CN(C3CCC(=O)NC3=O)C4=O)nc21 (centres unmarked) [Example 74]
> 10 µM

Fill in the blank: the reported DC50 of CC(C)Nc1n[nH]c2c(CN3CCCC3)cc(-c3ccc4c(c3Cl)CN(C3CCC(=O)NC3=O)C4=O)nc12 (centres unmarked) [Example 227] is ____.
> 10 µM

GET /values?readout=DC50&item= Nc1n[nH]c2c(CN3CCC(O)CC3)cc(-c3ccc4c(c3)CN(C3CCC(=O)NC3=O)C4=O)nc12 (centres unmarked) [Example 205]
1 to 10 µM

State the recorded DC50 for this entry: O=C1CCC(N2Cc3cc(-c4cc(CN5CC(F)C5)c5ccn(C6COC6)c5n4)ccc3C2=O)C(=O)N1 (centres unmarked) [Example 161]
> 10 µM

Look up DC50 for this compound: CC(C)C1CN(Cc2cc(-c3ccc4c(c3)CN(C3CCC(=O)NC3=O)C4=O)nc3[nH]ccc23)CC1O (centres unmarked) [Example 137]
0.01 to 0.1 µM

Bench note: what DC50 did O=C1CCC(N2Cc3cc(-c4nc(CN5CCCC5)c5ccn(C6CCC6)c5n4)ccc3C2=O)C(=O)N1 (centres unmarked) [Example 217] show?
> 10 µM

Report DC50 for CC(C)Nc1n[nH]c2c(CN3CC4(COC4)C3)cc(-c3ccc4c(c3F)CN(C3CCC(=O)NC3=O)C4=O)nc12 (centres unmarked) [Example 287] please.
0.1 to 1 µM

Fill in the blank: the reported DC50 of O=C1CCC(N2Cc3cc(-c4cc(CN5CCCC5)c5ccn(-c6ccccc6)c5n4)ccc3C2=O)C(=O)N1 (centres unmarked) [Example 139] is ____.
0.01 to 0.1 µM

So what's the measured DC50 for this one? O=C1CC[C@H](N2Cc3cc(-c4cc(CN5CCCC5)c5ccn(-c6cn[nH]c6)c5n4)ccc3C2=O)C(=O)N1 [Example 271]
0.1 to 1 µM

Any idea what its DC50 is? The compound is Cc1nc2c(CN3CCCC3)cc(-c3ccc4c(c3)CN(C3CCC(=O)NC3=O)C4=O)nc2o1 (centres unmarked) [Example 197]
> 10 µM

Reported DC50, compound Nc1n[nH]c2c(CN3CCC(F)CC3)cc(-c3ccc4c(c3)CN(C3CCC(=O)NC3=O)C4=O)nc12 (centres unmarked) [Example 212] : ____
0.001 to 0.01 µM

// lookup DC50 for O=C1CCC(N2Cc3cc(-c4cc(CN5CCCC5)c5[nH]ncc5n4)ccc3C2=O)C(=O)N1 (centres unmarked) [Example 307]
1 to 10 µM

Given the entry O=C1CCC(N2Cc3cc(-c4cc(CN5CCCC5)c5nc[nH]c5n4)ccc3C2=O)C(=O)N1 (centres unmarked) [Example 145] , report its measured DC50.
> 10 µM

Which DC50 value is on record for O=C1CCC(N2Cc3cc(-c4cc(CN5CC(O)C5)c5ccn(C6CC6)c5n4)ccc3C2=O)C(=O)N1 (centres unmarked) [Example 135] ?
> 10 µM

Any idea what DC50 was measured for O=C1CCC(N2Cc3cc(-c4cc(CN5CCCC5)c5[nH]ccc5n4)ccc3C2=O)C(=O)N1 (centres unmarked) [Example 76] ?
> 10 µM

Endpoint output: DC50 of Cc1cc(-c2ccc3c(c2)CN(C2CCC(=O)NC2=O)C3=O)nc2c1CCN2CCO (centres unmarked) [Example 132] . Value?
> 10 µM

Which DC50 value is on record for Cn1ccc2c(CN3CCC(F)C3)cc(-c3ccc4c(c3)CN(C3CCC(=O)NC3=O)C4=O)nc21 (centres unmarked) [Example 304] ?
> 10 µM

Requested read-out: DC50. Entry: CS(=O)(=O)C1CCN(Cc2cc(-c3ccc4c(c3)CN(C3CCC(=O)NC3=O)C4=O)nc3c2ccn3C2COC2)CC1 (centres unmarked) [Example 185]
> 10 µM
